target: T1, Human CD137 ECD (human); assay: single mutant vs template dBBDu183H
T1 construct: also called 4-1BB
T1 sequence (chain, as listed by the source limits assumed): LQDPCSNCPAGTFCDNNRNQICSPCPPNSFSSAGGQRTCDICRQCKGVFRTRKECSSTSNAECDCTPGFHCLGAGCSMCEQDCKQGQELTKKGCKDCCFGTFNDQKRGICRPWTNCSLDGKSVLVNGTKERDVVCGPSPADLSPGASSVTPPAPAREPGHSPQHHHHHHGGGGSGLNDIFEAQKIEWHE
Observed Property: fold change of affinity (fold)
// note: answer is a bare numeric in fold

- Binder: "H183/L072 VH K52bA (antibody, name in Kabat numbering, V domains shown) VH: QVQLVESGGGLVQPGRSLRLSCAASGFTFSNAWMHWVRQAPGKGLEWVAQIKDAGNAYAAYYAPSVKGRFTISRDDSKNSIYLQMNSLKTEDTAVYYCHYVHYASASTVLPAFGVDAWGQGTTVTVSS VL: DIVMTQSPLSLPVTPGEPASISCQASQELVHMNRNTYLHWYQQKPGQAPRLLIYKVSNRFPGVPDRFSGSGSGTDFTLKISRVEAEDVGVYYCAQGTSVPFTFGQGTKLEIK"
  Observed Property: "fold change of affinity"
  Value: 1
- Binder: "H183/L072 VH A60L (antibody, name in Kabat numbering, V domains shown) VH: QVQLVESGGGLVQPGRSLRLSCAASGFTFSNAWMHWVRQAPGKGLEWVAQIKDKGNAYAAYYLPSVKGRFTISRDDSKNSIYLQMNSLKTEDTAVYYCHYVHYASASTVLPAFGVDAWGQGTTVTVSS VL: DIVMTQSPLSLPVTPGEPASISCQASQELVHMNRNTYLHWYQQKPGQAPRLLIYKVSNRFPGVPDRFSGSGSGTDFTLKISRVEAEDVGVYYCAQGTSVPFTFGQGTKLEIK"
  Observed Property: "fold change of affinity"
  Value: 1.1

Please report fold change of affinity for the following binder: H183/L072 VH A32H (antibody, name in Kabat numbering, V domains shown) VH: QVQLVESGGGLVQPGRSLRLSCAASGFTFSNHWMHWVRQAPGKGLEWVAQIKDKGNAYAAYYAPSVKGRFTISRDDSKNSIYLQMNSLKTEDTAVYYCHYVHYASASTVLPAFGVDAWGQGTTVTVSS VL: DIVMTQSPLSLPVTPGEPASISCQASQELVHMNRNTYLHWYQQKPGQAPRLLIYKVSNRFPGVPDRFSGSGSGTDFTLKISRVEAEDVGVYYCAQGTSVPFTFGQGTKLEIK
0.2
